Values from the RNAGym collection of RNA variant scans (doi:10.7554/elife.80360)

B1: HDV Ribozyme (parent)
chain: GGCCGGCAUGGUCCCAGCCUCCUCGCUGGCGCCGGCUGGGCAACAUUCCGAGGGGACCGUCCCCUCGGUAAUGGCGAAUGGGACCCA

Variants of: B1
method-summary: self-cleavage, relative activity (ratio to wild type); higher = more cleavage; co-transcriptional
Each record's self-cleavage is compared with group 1: < 0.2; group 2: ≥ 0.2 and < 0.7; group 3: ≥ 0.7 to give its class.

Here's what some known entries look like.
variant-annotation: C4A C44U
assigned-label: group 1
--
variant-annotation: G10C C64G
assigned-label: group 3

Hi there! Could you help me figure out the category for C3A G67A please?
group 2
